Data export: IC50 values recorded with UniProt P43405.
metric_name: IC50

| smiles_code | test_target | recorded_result |
| --- | --- | --- |
| COc1cc(Nc2nc3c(-c4cccc(C(N)=O)c4)nccn3n2)cc(OC)c1 | UniProt P43405 | < 0.3 µM |
| Cc1cc(C)cc(Nc2nccn3nc(Nc4ccc(Sc5nccn5C)c(Cl)c4)nc23)c1 | UniProt P43405 | 3 to 50 µM |
| c1cc(-c2nccn3nc(Nc4ccc(N5CCOCC5)cc4)nc23)c2cc[nH]c2c1 | UniProt P43405 | < 0.3 µM |
| CN1CCN(c2ccc(Nc3nc4c(-c5cnn(C)c5)nccn4n3)cc2)CC1 | UniProt P43405 | < 0.3 µM |
| COc1cc(Nc2nc3c(-c4cccc(O)c4)nccn3n2)cc(OC)c1 | UniProt P43405 | < 0.3 µM |
| FC(F)(F)c1cccc(Nc2nc3c(-c4ccc(N5CCOCC5)cc4)nccn3n2)c1 | UniProt P43405 | 3 to 50 µM |
| COc1cc(Nc2nc3c(NCCN)nccn3n2)cc(OC)c1 | UniProt P43405 | 3 to 50 µM |
| Clc1nccn2nc(Nc3ccc4cnn(Cc5ccccc5)c4c3)nc12 | UniProt P43405 | 3 to 50 µM |
| FC(F)(F)c1cccc(Nc2nc3c(-c4ccccc4)nccn3n2)c1 | UniProt P43405 | 0.3 to 3 µM |

====

biological target: UniProt:P43403
Sequence (P43403 whole entry): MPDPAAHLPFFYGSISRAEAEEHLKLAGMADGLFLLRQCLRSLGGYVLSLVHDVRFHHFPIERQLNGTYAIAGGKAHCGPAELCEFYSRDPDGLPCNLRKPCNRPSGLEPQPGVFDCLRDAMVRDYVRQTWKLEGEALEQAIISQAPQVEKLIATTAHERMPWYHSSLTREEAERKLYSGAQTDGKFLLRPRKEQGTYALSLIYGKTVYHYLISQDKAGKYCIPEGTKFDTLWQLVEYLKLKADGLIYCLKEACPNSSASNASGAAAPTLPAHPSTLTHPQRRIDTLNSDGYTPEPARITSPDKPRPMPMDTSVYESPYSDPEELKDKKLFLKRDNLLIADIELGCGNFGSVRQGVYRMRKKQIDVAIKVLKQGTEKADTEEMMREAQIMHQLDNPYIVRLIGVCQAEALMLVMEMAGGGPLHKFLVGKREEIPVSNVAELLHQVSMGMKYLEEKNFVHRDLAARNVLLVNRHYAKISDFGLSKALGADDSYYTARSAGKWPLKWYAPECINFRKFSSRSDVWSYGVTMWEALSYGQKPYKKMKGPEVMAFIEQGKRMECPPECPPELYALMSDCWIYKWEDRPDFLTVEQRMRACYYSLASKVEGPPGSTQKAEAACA
// values below are reported IC50

| molecule | IC50 |
| --- | --- |
| COc1cc(OC)cc(-c2nccn3nc(Nc4ccccc4)nc23)c1 [Example C18] | 3 to 50 µM |
| Cn1ncc2cc(-c3nccn4nc(Nc5ccc(N6CCOCC6)cc5)nc34)ccc21 [Example D2] | 3 to 50 µM |
| COc1cc(Nc2nc3c(-c4cccc(O)c4)nccn3n2)cc(OC)c1 [Example C268] | 0.3 to 3 µM |
| c1ccc(Cn2ncc3ccc(Nc4nc5c(Nc6ccccc6)nccn5n4)cc32)cc1 [Example C85] | 0.3 to 3 µM |
| COc1cc(Nc2nc3c(N4CCCC4c4ccccn4)nccn3n2)cc(OC)c1 (stereo not drawn) [Example D21] | 3 to 50 µM |
| Cn1ccnc1Sc1ccc(Nc2nc3c(Nc4ccccc4)nccn3n2)cc1Cl [Example C80] | 0.3 to 3 µM |
| Cc1cccc(Nc2nccn3nc(Nc4ccc(Sc5nccn5C)c(Cl)c4)nc23)c1 [Example C79] | 0.3 to 3 µM |
| COc1cc(Nc2nccn3nc(Nc4ccc5cnn(Cc6ccccc6)c5c4)nc23)cc(OC)c1 [Example C82] | 3 to 50 µM |
| COc1cc(Nc2nc3c(-c4cnn(C)c4)nccn3n2)cc(OC)c1 [Example C300] | 3 to 50 µM |
| COc1cc(Nc2nc3c(-c4cccc5[nH]ncc45)nccn3n2)cc(OC)c1 [Example C303] | < 0.3 µM |
| COCCCNc1nccn2nc(Nc3cccc(C(F)(F)F)c3)nc12 [Example C44] | 3 to 50 µM |
| COc1cc(OC)cc(-c2nccn3nc(Nc4ccc5cnn(Cc6ccccc6)c5c4)nc23)c1 [Example C26] | 0.3 to 3 µM |
| FC(F)(F)c1cccc(Nc2nccn3nc(Nc4ccccc4)nc23)c1 [Example C76] | 3 to 50 µM |
| c1ccc(Nc2nc3c(-c4nccs4)nccn3n2)cc1 [Example C14] | 3 to 50 µM |
| CN(C)CCCNc1nccn2nc(Nc3ccccc3)nc12 [Example C50] | 3 to 50 µM |
| CN1CCN(CCCNc2nccn3nc(Nc4ccccc4)nc23)CC1 [Example C52] | 3 to 50 µM |
| Oc1cccc(-c2nccn3nc(Nc4ccc(N5CCOCC5)cc4)nc23)c1 [Example C269] | 0.3 to 3 µM |
| COc1cc(Nc2nc3c(-c4ccc(C(C)(C)C#N)cc4)nccn3n2)cc(OC)c1 [Example C256] | 3 to 50 µM |
